assay: Photophysical properties (UV–Vis absorption and fluorescence spectra); format: physicochemical; conditions: PBS (3%w/w tween 80), 2 µM
EXPERIMENTAL ENDPOINT: λabs absorption maximum wavelength (nm)

CN(C)c1ccc(/C=C/C(=O)c2ccc(N(C)C)cc2)cc1	422
CN(C)c1ccc(/C=C/C(=O)c2ccc(O)cc2)cc1	411
CN(C)c1ccc(/C=C/C(=O)c2ccc(N)cc2)cc1	412
Cc1ccc(C(=O)/C=C/c2ccc(N(C)C)cc2)cc1	420
CN(C)c1ccc(/C=C/C(=O)c2cccs2)cc1	427
COc1ccc(C(=O)/C=C/c2ccc(N(C)C)cc2)cc1	416
